Cited source for all entries: patent US20200317802A1

koff: recorded values
assaySystem: T1, guinea pig recombinant ADAMTS5 (guinea pig)
T1 construct: in house, HEK293, His tag in the entry
T1 chain: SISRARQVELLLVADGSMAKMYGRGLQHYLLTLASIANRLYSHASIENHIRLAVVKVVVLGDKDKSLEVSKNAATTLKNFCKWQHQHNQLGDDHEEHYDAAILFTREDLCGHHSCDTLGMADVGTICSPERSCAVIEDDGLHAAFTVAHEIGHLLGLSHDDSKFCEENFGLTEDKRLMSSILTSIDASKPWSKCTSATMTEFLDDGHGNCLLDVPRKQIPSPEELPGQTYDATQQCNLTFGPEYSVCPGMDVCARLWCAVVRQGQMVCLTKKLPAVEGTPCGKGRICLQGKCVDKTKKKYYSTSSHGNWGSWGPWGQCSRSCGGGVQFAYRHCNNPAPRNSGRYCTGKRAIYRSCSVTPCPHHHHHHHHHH
experimentNotes: SPR off-rate, Biacore T100, ADAMTS5 immobilised, experiment 1
experimentalReadout: koff (s⁻¹)

{"binder": "Nanobody 2F03 (VHH, tagged as tested (anti-Flag detection, IMAC); also called 02F03; 2F3) VHH: EVQLVESGGGLVQAGGSLRLSCAASGRTVSSYAMGWFRLAPGKEREFVAGISRSAERTYYVDSLKGRFTISRDSAKNTVYLHMNRLKPEDTAVYYCAADLDPNRIFSREEYAYWGQGTLVTVSS", "measured": "3.4e-05"}
{"binder": "Nanobody 3D01 (VHH, tagged as tested (anti-Flag detection, IMAC); also called 03D01) VHH: EVQLVESGGGLVQAGGSLRLSCAPSGFTFSPYYMGWFRQAPGKERDFVAAISRSRGTTYYLDSTEGRFTISRDNANDTVYLQMNSLNPEDTAVYYCAAGRSPGDPSRTYLYDYWGQGTLVTVSS", "measured": 0.00027}
{"binder": "Nanobody 9D03 (VHH, tagged as tested (anti-Flag detection, IMAC); also called 09D03; 9D3) VHH: EVQLVESGGGLVQSGGSLRLSCAASGSAVSVNAMAWYRQAPGKQRDFVAGISRSAGRTYYTDSVKDRFTIARDSAKNTVYLQMNRLKPEDTAVYYCAADLDPNRIFSRDEAAYWGQGTLVTVSS", "measured": 0.001}
